# testedSystem: HTRA1, Q92743
# Sequence (Q92743 360-477): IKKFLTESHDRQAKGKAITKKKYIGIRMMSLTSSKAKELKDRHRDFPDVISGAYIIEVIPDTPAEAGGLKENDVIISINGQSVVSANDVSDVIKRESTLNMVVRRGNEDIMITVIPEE
# experimentalDetails: holdup assay
# Parameters: key: below the threshold = too weak to quantify, mostly under pKd 3.1 to 4
# testContext: plain residues with an end cap or a label only (N-terminal biotin on a linker: ttds)
recordedMetric: pKd

1) NPDALPETLV [ARHGAP6, O43182]    4.13
2) GARVSKETPL [MAPK12, P53778]    below the threshold
3) SSIDLWETAL [SLC15A5, A6NIM6]    4.25
4) KQVVPFSSSV [GDA, Q9Y2T3]    below the threshold

[Q] // lookup pKd for PPRQRSETQV [HPV82-E6, Q9IR59]
[A] below the threshold

[Q] Return reported pKd; argument: DLDEEEDTHL [PODXL, O00592]
[A] 3.73

[Q] Fill in the blank: the reported pKd of FVETQHQTQV [FAT3, Q8TDW7] is ____.
[A] below the threshold
